system: Enterococcus faecalis; test: Antibacterial activity against vancomycin-resistant Enterococcus faecalis 725B after 24 hrs; type: functional
Experimental endpoint: MIC

>>> result("O=C(Nc1ccc(Cl)cc1)c1cc([N+](=O)[O-])ccc1O")
"> 874 µM"
>>> result("COc1ccc(NC(=O)c2cc(Cl)ccc2OC(=O)[C@@H](NC(=O)OCc2ccccc2)C(C)C)cc1")
"> 499 µM"

Parameter requested: MIC. Apply to each item below.
1. CC(C)[C@H](NC(=O)OCc1ccccc1)C(=O)Oc1ccc(Cl)cc1C(=O)Nc1ccc(C(F)(F)F)cc1
2. CC(C)[C@H](NC(=O)OCc1ccccc1)C(=O)Oc1ccc(Cl)cc1C(=O)Nc1ccc([N+](=O)[O-])cc1
3. CC1(C)S[C@@H]2[C@H](NC(=O)[C@H](N)c3ccccc3)C(=O)N2[C@H]1C(=O)O [AMPICILLIN]
4. CC(C)[C@H](NC(=O)OCc1ccccc1)C(=O)Oc1ccc([N+](=O)[O-])cc1C(=O)Nc1ccc(Cl)cc1

A:
1: > 466 µM; 2: > 486 µM; 3: 5.72 µM; 4: > 466 µM

Parameter requested: MIC. Apply to each item below.
1. CN(C)[C@@H]1C(O)=C(C(N)=O)C(=O)[C@@]2(O)C(O)=C3C(=O)c4c(O)cccc4[C@@](C)(O)[C@H]3C[C@@H]12 [TETRACYCLINE]
2. O=C(Nc1ccc(C(F)(F)F)cc1)c1cc(Cl)ccc1O

A:
1: 144 µM; 2: 0.792 µM
